I'd appreciate it if you could supply growth values for the items below.
System: OVCAR-3 ovarian
Assay: NCI-60 one-dose screen, 48 h (100 = growth as untreated, 0 = no growth, -100 = all killed)
Conditions: 10 µM unless noted
About 83,000 compounds went through this panel and 20% of them were active in at least one assay; those are over-represented in the sample as a whole.
Give bare numbers, in %.

// below: answered compounds
O=C(Cc1ccccc1Nc1c(Cl)cccc1Cl)NN1C(=O)/C(=C/c2ccc(Br)cc2)SC1=S    109
O=C(N/N=C/c1ccccc1O)c1ccccc1Nc1ccnc(C(F)(F)F)c1    35.7
O=c1cc(CSc2nnc(-c3ccc(F)cc3)o2)c2ccc3ccccc3c2o1    101
CCOc1cc2ncc(C#N)c(Nc3ccc(OCc4cccc(F)c4)c(Cl)c3)c2cc1NC(=O)CC1CCSS1 (stereo unspecified)    37.3
CCN1CCN(c2nc(NCCCNc3ccnc4cc(Cl)ccc34)c3ccccc3n2)CC1    54

Moving on to the next compound.
Measured growth, CCc1nnc(CNc2ccc(Cl)cc2)o1 : 99.9

====

Test system: LOX IMVI melanoma
Experiment: NCI-60 one-dose screen, 48 h
Conditions: 10 µM unless noted
This is part of a sample that, as a whole, favours compounds with a hit. Of some 83,000 tested, about 20% had one in any assay. Calls of active or inactive are those of the source. Rule for the calls: active = growth percent below 10; inactive = the rest.
In this exercise, the only acceptable responses are class 1 for active, class 0 for inactive

Worked examples follow.
COc1cc(-c2ccc3c(c2)NC(=O)/C3=C\c2ccc[nH]2)ccc1O    class 1
COc1cc(C)c(C2C(C#N)=C(N)Oc3n[nH]c(-c4cccs4)c32)cc1C(C)C (stereo not given)    class 0
COc1ccc(N=Nc2nccs2)c(O)c1    class 0
CCCCN1CCCn2c1nc1c2c(=O)n(CCC)c(=O)n1CCC    class 0

Exam item: Which outcome was assigned to Nc1ccc(-c2cc3c(Nc4ccc(Oc5cccc(C(F)(F)F)c5)c(Cl)c4)ncnc3s2)cc1 in this test?
Marked response: class 0

Exam item: How did this test come out for CSc1nc(NCCN2CCOCC2)c(C#N)c(-c2cccc([N+](=O)[O-])c2)n1 ?
Marked response: class 0

Exam item: Outcome logged for CCCc1cc(=O)n2c(C(=O)Nc3cccc(C(=O)OCC)c3)c(C(=O)Nc3ccc(F)cc3)sc2n1 in this assay:
Marked response: class 0

Exam item: In this assay, the call recorded for O=C(/C=C/c1ccc(C(F)(F)F)cc1)Nc1ccc(C=C2c3ccccc3C(=O)c3ccccc32)cc1 was what?
Marked response: class 0

Exam item: Just curious, what result did O=S(=O)(Nc1ccc(Cl)c(F)c1)c1ccc(-c2cnc(C3CC3)o2)cc1 get here?
Marked response: class 0

Exam item: # fetch the recorded call for O=C1C=CC(=O)N1c1ccc2c(c1)Cc1cc(F)ccc1-2 here
Marked response: class 0

====

Test system: OVCAR-4 ovarian
Test: NCI-60 one-dose screen, 48 h
Conditions: 10 µM unless noted
Procedure: Growth inhibition of the OVCAR-4 human tumor cell line is measured as a screen for anti-cancer activity. Cells are grown in 96 well plates and exposed to the test compound for 48 hours. Compounds are tested at a single concentration, which is 10^-5 M for most compounds. The reported endpoint is percent growth (GI% or GIPRCNT), where numbers from 0 - 100% represent growth inhibition, and numbers from -100% - 0 represent cell death. For example, a value of 40 represents 60% growth inhibition. […]
This is part of a sample that, as a whole, favours compounds with a hit. Of some 83,000 tested, about 20% had one in any assay. Active and inactive are the calls of the source. How the source made its calls: active means growth percent below 10; inactive means the rest.
# output must be one of active, inactive

These recorded examples may help you get a feel for the data.
COc1cc(C(=O)/C=C/c2cccnc2Nc2ccc(Cl)cc2)cc(OC)c1OC    active
CC[C@@H]1O[C@H](O[C@@H](c2cnc[nH]2)[C@H](NC(=O)c2nc([C@H](CC(N)=O)NC[C@@H](N)C(N)=O)nc(N)c2C)C(=O)N[C@H](C)[C@H](O)[C@H](C)C(=O)N[C@@H](C(=O)NCCc2nc(-c3nc(C(=O)NCCCCN=C(N)N)cs3)cs2)[C@@H](C)O)[C@H](O[C@@H]2O[C@H](CO)[C@H](O)[C@H](OC(N)=O)[C@@H]2O)[C@H](C)[C@@H]1C    inactive
CC1=CC(C)(C)Nc2ccc(Cc3ccc4c(c3)C(C)=CC(C)(C)N4)cc21    inactive
COc1cc(-c2ccc3c(c2)NC(=O)/C3=C\c2ccc[nH]2)ccc1O    inactive
O=C1c2cc3c(cc2-c2c1c1ccc(Cl)cc1c(=O)n2CCCN1CCOCC1)OCO3    inactive

Exam item: Outcome? COC(=O)[C@@H]1CCCN1C(=O)[C@@H]1CCCN1C(=O)[C@H](Cc1ccccc1)NC(=S)Nc1cc(C(F)(F)F)cc(C(F)(F)F)c1
Marked response: inactive

Exam item: Assay outcome for O=c1ccccc(-c2ccc(-c3ccco3)cc2)c1O : what was it?
Marked response: inactive

Exam item: Which outcome was assigned to COc1cccc(-c2nc(SCC(=O)Nc3ccc(C(=O)/C=C/c4ccc(OC)c(OC)c4)cc3)[nH]c(=O)c2C#N)c1 in this test?
Marked response: inactive

Exam item: Hey, what did the test say about CN(C)c1ccc(NC(=O)c2ccc(/C=C/C(=O)c3ncc[nH]3)cc2)cc1 ?
Marked response: inactive

Exam item: Please let me know the test result on file for O=C(CCCCC(=O)N/N=C\c1ccccc1O)N/N=C\c1ccccc1O .
Marked response: inactive

Exam item: # outcome recorded in this test, key = Clc1ccc2c(NCCNc3nc(N4CCOCC4)nc4ccccc34)ccnc2c1
Marked response: active

Exam item: Called result for COc1ccc(CN2c3ccccc3Oc3ccccc32)cc1F
Marked response: inactive

Exam item: GET /call?item= OCCNc1nccc(N2CCN(c3ccnc4cc(Cl)ccc34)CC2)n1 returns the recorded outcome of this test.
Marked response: inactive

Exam item: Please indicate how the test categorized C=C(C)[C@@H]1CC[C@]2(C(N)=O)CC[C@]3(C)[C@H](CC[C@@H]4[C@@]5(C)C/C(=C/c6ccco6)C(=O)C(C)(C)[C@@H]5CC[C@]43C)[C@@H]12 .
Marked response: inactive

Exam item: Returns: the outcome recorded for Nc1ccc(-c2cc3c(NCc4ccccc4)ncnc3s2)cc1 in this assay.
Marked response: inactive

Exam item: # outcome recorded in this test, key = C#CC(F)(F)[C@]1(O)CC[C@H]2[C@@H]3CCC4=CC(=O)CCC4=C3[C@@H](c3ccc(C4CC4)cc3)C[C@@]21C
Marked response: inactive

Exam item: Each molecule tested received a call. Report the one for O=C1/C(=C/c2ccccc2)SC(=S)N1CCc1ccc(O)cc1 .
Marked response: inactive

Exam item: Fill in: this test's call for O=C(/C=C/c1cccc([N+](=O)[O-])c1)c1ccc(O)c(CN2CCN(c3cc4c(cc3F)c(=O)c(C(=O)O)cn4C3CC3)CC2)c1 is ___
Marked response: inactive

Exam item: Hey, what did the test say about CCNC(=O)Oc1ccc(/C(=C(\C)c2ccc(Cl)cc2)c2ccc(OCCN3CCCCC3)cc2)cc1 ?
Marked response: inactive

====

Tested on: OVCAR-5 ovarian
Test: NCI-60 one-dose screen, 48 h
Conditions: 10 µM unless noted
The panel holds about 83,000 compounds, 20% with a hit somewhere; the sample as a whole holds those more often. Calls of active or inactive are those of the source. The calls were made as follows: active = growth percent below 10; inactive = the rest.
Parameter call: string, one of T for active, F for inactive

Nc1nc2ccc3[nH]ncc3c2c2c1CCCC2    T
O=C1NC(=Nc2ccc(O)cc2)S/C1=C\c1cccc(Cl)c1    F
Nc1nc2ncc(CCNc3ccc(C(=O)O)cc3)nc2c(=O)[nH]1    F

Exam item: Outcome? C=CCSSC1N=CNc2nc[nH]c21 (stereo unspecified)
Marked response: F

Exam item: # lookup: test call for COc1cc2c(cc1O)CC[C@@H]1[C@@H]2CC[C@]2(C)[C@@H](OCCCN(C)C)CC[C@@H]12
Marked response: T

Exam item: # outcome recorded in this test, key = CSc1ccc(-c2n[nH]nc2-c2cc3ccccc3s2)cc1
Marked response: F

====

Test system: BT-549 breast
Assay: NCI-60 one-dose screen, 48 h
Details: 10 µM unless noted
The panel holds about 83,000 compounds, 20% with a hit somewhere; the sample as a whole holds those more often. Calls of active or inactive are those of the source. The calls were made as follows: active = growth percent below 10; inactive = the rest.
Give your call using only these classes: Y for active, N for inactive

Please review the entries below; each comes with its answer.
COc1ccc(C(=O)c2sc3nc4c(c(-c5cccnc5)c3c2N)CCCC4)cc1OC    N
Cc1ncc(C(=O)Nc2ccc(CN3CCN(C)CC3)c(C(F)(F)F)c2)cc1C#Cc1cnc2cccnn12    Y
C=C(C)C1CC(O)C2(C)CCCC3C2C1CC(C)C3(C)CC/C(C)=C/C(O)C1CCC(=O)c2c(OC)cc(OC)cc21 (stereo not drawn)    N

Exam item: Assay result, entry CCOC(=O)c1c(C)oc2ncnc(N3CCN(C(=O)COc4ccc(SC)cc4)CC3)c12 — outcome?
Marked response: N

Exam item: For Cn1c(O)c(N=NC(=O)c2cc(-c3ccccc3)on2)c2ccccc21 , which call appears in the assay record?
Marked response: N

Exam item: For this compound, state the assay outcome: Cc1cc(C)c2nc3nc(C)cc(C)c3c(N)c2c1
Marked response: N
